target: HLA-A*11:01; assay: IEDB peptide-MHC binding, purified MHC/direct/fluorescence; filed as Kd, often an IC50 or EC50 that approximates it; bounds were set here for any values at or beyond the usual limits of such assays; conditions: source organism: Cryptosporidium parvum
parameter.measured: Kd

For record `WLPWIPQLI` the listed Kd is ≥ 20 µM

###

molecular target: HLA-B*15:02; test: IEDB peptide-MHC binding, purified MHC/direct/fluorescence; filed as Kd, often an IC50 or EC50 that approximates it; bounds were set here for any values at or beyond the usual limits of such assays; conditions: source organism: Yersinia enterocolitica subsp. enterocolitica 8081
parameter.measured: Kd
Write the numeric value and append its unit.

Form: sequence = `WLWVSSSDM` ; Kd = 3 nM
